This section presents molecules with their documented IC50 values.
- target-desc: human SGLT1 (Homo sapiens, UniProt P13866)
- Construct: the cDNA for hSGLTI (Genbank Ace. No. NM000343); expressed in transfected cells; host or cells: CHO-K1 or HEK293 cells expressing the hSGLT1 cDNA
- Sequence (P13866 1-664): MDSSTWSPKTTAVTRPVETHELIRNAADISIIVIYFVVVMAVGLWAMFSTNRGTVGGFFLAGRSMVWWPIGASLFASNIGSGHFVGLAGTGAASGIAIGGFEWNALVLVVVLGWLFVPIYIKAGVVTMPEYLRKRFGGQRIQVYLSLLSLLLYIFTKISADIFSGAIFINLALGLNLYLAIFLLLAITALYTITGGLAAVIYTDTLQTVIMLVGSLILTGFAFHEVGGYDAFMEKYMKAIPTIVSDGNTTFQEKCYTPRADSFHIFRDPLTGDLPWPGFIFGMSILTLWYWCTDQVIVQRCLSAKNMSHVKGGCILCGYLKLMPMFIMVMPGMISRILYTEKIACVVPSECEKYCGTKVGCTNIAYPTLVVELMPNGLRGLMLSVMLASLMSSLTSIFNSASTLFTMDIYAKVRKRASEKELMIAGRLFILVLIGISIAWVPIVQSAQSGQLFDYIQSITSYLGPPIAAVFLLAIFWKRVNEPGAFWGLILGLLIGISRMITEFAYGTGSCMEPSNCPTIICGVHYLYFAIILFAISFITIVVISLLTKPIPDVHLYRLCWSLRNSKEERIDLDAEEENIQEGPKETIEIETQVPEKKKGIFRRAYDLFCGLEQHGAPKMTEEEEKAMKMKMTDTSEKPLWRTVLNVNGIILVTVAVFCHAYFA
- assay-info: SGLT1 assay: analogous 14C-AMG uptake test with hSGLT1 cDNA expressed in CHO-K1 or HEK293 cells
- Assay type: cell-based
- measurement-parameters: n = 1-4
Please give a number only; it is taken to be in nM.

molecule | target-desc | IC50, nM
CSC1O[C@@H](c2ccc(C3CC3)c(Cc3ccc4c(c3)OCCO4)c2)[C@H](O)[C@@H](O)[C@@H]1O (stereo partly drawn) | human SGLT1 (Homo sapiens, UniProt P13866) | 0.55
CS(=O)(=O)[C@H]1O[C@@H](c2ccc(C3CC3)c(Cc3ccc4c(c3)OCCO4)c2)[C@H](O)[C@@H](O)[C@@H]1O | human SGLT1 (Homo sapiens, UniProt P13866) | 97

// switching to the query molecule
Value of IC50 reported for the molecule CCc1ccc([C@@H]2O[C@H](S(C)(=O)=O)[C@@H](O)[C@H](O)[C@H]2O)cc1Cc1ccc2c(c1)OCCO2 is 195

====

- target-desc: human sodium glucose co-transporter 2 (Homo sapiens, UniProt P31639)
- Construct: expressed in transfected cells; host or cells: CHO-K1 (ATCC CCL-61) or HEK293 (ATCC CRL-1573), stably transfected with pZeoSV carrying the hSGLT2 cDNA
- Sequence (P31639 whole entry): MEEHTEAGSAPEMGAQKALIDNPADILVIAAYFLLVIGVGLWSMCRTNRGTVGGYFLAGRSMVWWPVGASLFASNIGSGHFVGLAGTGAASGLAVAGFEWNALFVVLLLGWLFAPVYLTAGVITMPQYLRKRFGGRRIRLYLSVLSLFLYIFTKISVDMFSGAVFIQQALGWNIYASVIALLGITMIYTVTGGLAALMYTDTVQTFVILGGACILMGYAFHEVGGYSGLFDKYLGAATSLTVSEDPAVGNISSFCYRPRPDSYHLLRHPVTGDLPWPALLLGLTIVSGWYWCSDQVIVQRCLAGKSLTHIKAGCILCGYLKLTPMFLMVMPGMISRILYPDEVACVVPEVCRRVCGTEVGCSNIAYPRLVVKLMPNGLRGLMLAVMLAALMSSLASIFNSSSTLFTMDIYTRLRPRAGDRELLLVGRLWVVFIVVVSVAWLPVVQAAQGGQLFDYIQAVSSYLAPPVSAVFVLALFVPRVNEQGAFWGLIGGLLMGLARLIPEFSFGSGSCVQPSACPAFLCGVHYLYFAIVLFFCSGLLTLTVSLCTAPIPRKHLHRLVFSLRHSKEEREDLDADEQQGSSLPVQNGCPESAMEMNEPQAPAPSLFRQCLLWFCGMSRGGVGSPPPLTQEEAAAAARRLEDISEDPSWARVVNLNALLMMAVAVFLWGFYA
- assay-info: SGLT-2 assay: sodium-dependent 14C-AMG uptake in CHO-hSGLT2 or HEK-hSGLT2 cells
- Assay type: cell-based
- measurement-parameters: n = 1-4, read-out: SGLT2 IC50 nM (n = 1-4)
This section presents compounds with their documented IC50 values.
Give the value; after it, write the unit.

compound | target-desc | IC50
CSC1O[C@@H](c2ccc(C3CC3)c(Cc3ccc4c(c3)OCCO4)c2)[C@H](O)[C@@H](O)[C@@H]1O (stereo partly shown) | human sodium glucose co-transporter 2 (Homo sapiens, UniProt P31639) | 0.29 nM
CS(=O)(=O)[C@H]1O[C@@H](c2ccc(C3CC3)c(Cc3ccc4c(c3)OCCO4)c2)[C@H](O)[C@@H](O)[C@@H]1O | human sodium glucose co-transporter 2 (Homo sapiens, UniProt P31639) | 9.2 nM
CCc1ccc([C@@H]2O[C@H](SC)[C@@H](O)[C@H](O)[C@H]2O)cc1Cc1ccc2c(c1)OCCO2 | human sodium glucose co-transporter 2 (Homo sapiens, UniProt P31639) | 0.36 nM

// switching to the query compound
# CCc1ccc([C@@H]2O[C@H](S(C)(=O)=O)[C@@H](O)[C@H](O)[C@H]2O)cc1Cc1ccc2c(c1)OCCO2 with human sodium glucose co-transporter 2 (Homo sapiens, UniProt P31639): IC50 is 1.45 nM

Sourced from patent US8722633B2
